Target: human ether-à-go-go-related gene (hERG) potassium channel (human, UniProt Q12809);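 note: peak tail current of the secondary pulse compared with the same well before compound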
Sequence (Q12809 whole entry, looked up): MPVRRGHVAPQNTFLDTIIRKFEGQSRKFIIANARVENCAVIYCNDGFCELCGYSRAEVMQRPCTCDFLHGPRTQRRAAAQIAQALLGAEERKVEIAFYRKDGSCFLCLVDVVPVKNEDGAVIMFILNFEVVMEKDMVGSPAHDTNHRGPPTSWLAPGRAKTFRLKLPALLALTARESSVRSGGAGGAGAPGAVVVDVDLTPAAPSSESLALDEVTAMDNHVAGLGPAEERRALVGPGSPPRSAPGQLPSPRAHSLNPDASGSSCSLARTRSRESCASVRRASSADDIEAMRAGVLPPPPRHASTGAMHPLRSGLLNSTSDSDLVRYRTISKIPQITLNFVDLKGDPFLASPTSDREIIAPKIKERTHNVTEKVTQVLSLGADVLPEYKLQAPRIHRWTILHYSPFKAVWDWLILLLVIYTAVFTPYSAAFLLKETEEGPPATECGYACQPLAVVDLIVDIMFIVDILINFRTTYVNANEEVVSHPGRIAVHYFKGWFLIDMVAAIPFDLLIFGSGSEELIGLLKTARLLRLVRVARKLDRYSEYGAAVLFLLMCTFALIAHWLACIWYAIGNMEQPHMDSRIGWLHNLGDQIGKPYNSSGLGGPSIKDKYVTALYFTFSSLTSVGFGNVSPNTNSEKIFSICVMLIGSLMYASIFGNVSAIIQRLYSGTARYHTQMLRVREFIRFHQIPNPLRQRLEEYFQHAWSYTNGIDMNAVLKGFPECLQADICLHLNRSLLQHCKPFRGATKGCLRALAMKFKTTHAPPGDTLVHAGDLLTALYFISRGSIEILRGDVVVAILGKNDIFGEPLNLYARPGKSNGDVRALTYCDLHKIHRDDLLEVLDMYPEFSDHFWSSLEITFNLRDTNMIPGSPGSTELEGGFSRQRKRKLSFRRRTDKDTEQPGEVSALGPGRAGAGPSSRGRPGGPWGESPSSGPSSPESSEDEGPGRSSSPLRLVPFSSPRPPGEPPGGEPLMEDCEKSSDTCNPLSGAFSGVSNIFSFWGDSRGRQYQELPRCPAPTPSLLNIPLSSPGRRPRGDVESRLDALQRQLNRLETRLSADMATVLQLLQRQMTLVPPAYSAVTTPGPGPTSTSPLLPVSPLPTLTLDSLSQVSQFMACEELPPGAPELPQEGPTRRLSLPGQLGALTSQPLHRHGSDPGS
Experiment: primary screen, population patch clamp on CHO cells stably expressing hERG; higher = less effect of the substance
About 14,000 (4.5%) of roughly 310,000 compounds showed an effect of 50% or more. The effect is printed as a negative number. For the sample, strong results were picked, then their nearest neighbours and some compounds at random.
Listed below: hERG current change (%, negative = inhibition) at 10uM values for each entry.
property name: hERG current change (%, negative = inhibition) at 10uM (%)

>>> df
                                  structure                               measured_on  assay_result
0  O=C(NCc1ccc(F)cc1)c1c2c(nc3ccccc13)CCN(Cc1ccccc1)C2  human ether-à-go-go-related gene (hERG) potassium channel (human, UniProt Q12809)         -22.2
1     c1ccc(Nc2nc(N3CCCC3)nc(N3CCCC3)n2)cc1  human ether-à-go-go-related gene (hERG) potassium channel (human, UniProt Q12809)          13.1
2  COc1ccc(N2CCN(C(=O)COc3ccc4c(C)cc(=O)oc4c3)CC2)cc1  human ether-à-go-go-related gene (hERG) potassium channel (human, UniProt Q12809)         -16.5
3  COc1cc(C(=O)NCCCN2CCCC2=O)cc(Br)c1OCc1ccccc1  human ether-à-go-go-related gene (hERG) potassium channel (human, UniProt Q12809)         -50.7
4      O=C(Nc1ccccc1)c1c2c(nc3ccccc13)CCCC2  human ether-à-go-go-related gene (hERG) potassium channel (human, UniProt Q12809)         -0.42
5  CCOc1ccc(NC(=O)c2c3c(nc4ccccc24)CCC3)cc1  human ether-à-go-go-related gene (hERG) potassium channel (human, UniProt Q12809)          8.95
6  COc1ccc(N2CCN(C(=O)COc3ccc4c(C)cc(=O)oc4c3C)CC2)cc1  human ether-à-go-go-related gene (hERG) potassium channel (human, UniProt Q12809)          20.6
7  Cc1cc(=O)oc2c(C)c(OCC(=O)N3CCN(c4ccccc4)CC3)ccc12  human ether-à-go-go-related gene (hERG) potassium channel (human, UniProt Q12809)         -24.8
8    O=C(NCCCN1CCCC1=O)c1ccc(OCc2ccccc2)cc1  human ether-à-go-go-related gene (hERG) potassium channel (human, UniProt Q12809)         -12.9
9  Cc1cc(=O)oc2cc(OCC(=O)N3CCN(c4ccccc4)CC3)ccc12  human ether-à-go-go-related gene (hERG) potassium channel (human, UniProt Q12809)         -36.6

---

Listed below: hERG current change (%, negative = inhibition) at 10uM values for each entry.
Molecular target: human ether-à-go-go-related gene (hERG) potassium channel (human, UniProt Q12809);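 note: peak tail current of the secondary pulse compared with the same well before compound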
Assay: primary screen, population patch clamp on CHO cells stably expressing hERG; higher = less effect of the substance
In all, about 310,000 compounds went through this assay and about 14,000 (4.5%) showed an effect of 50% or more. The effect is printed as a negative number. The entries come from a sample that favours strong results as a whole.
property name: hERG current change (%, negative = inhibition) at 10uM (%)

In [3]: df
Out[3]:
                                   compound                               measured_on  assay_result
0  COc1cc(NC(=O)COc2ccc(Br)cc2)ccc1NC(=O)C(C)C  human ether-à-go-go-related gene (hERG) potassium channel (human, UniProt Q12809)           4.1
1  CCCC(=O)Nc1c(-c2ccccc2)c(=O)c(C)nn1-c1ccccc1  human ether-à-go-go-related gene (hERG) potassium channel (human, UniProt Q12809)          10.3
2      CCN1C(=O)/C(=C\C=C2/C=CC=CN2CC)SC1=S  human ether-à-go-go-related gene (hERG) potassium channel (human, UniProt Q12809)         -5.68
3  Cn1c(SCC(=O)Nc2ccc3nc(SCC(=O)NC4CC4)sc3c2)nnc1-c1ccccc1  human ether-à-go-go-related gene (hERG) potassium channel (human, UniProt Q12809)          -5.5
4  COCCNC(C(=O)Nc1ccc([N+](=O)[O-])cc1Br)c1ccccc1 (centres unmarked)  human ether-à-go-go-related gene (hERG) potassium channel (human, UniProt Q12809)           -74

---

Biological target: human ether-à-go-go-related gene (hERG) potassium channel (human, UniProt Q12809);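 note: peak tail current of the secondary pulse compared with the same well before compound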
Test: primary screen, population patch clamp on CHO cells stably expressing hERG; higher = less effect of the substance
About 14,000 (4.5%) of roughly 310,000 compounds showed an effect of 50% or more. The effect is printed as a negative number. Shown is part of a subset that was picked to be rich in strong results.
property name: hERG current change (%, negative = inhibition) at 10uM (%)

In [3]: df
Out[3]:
                                    molecule  assay_result
 0  O=C(COC(=O)c1ccc(S(=O)(=O)N2CCOCC2)cc1)NCc1cccs1           2.5
 1       CCCN(CCC)CCCOC(=O)c1ccc(Cl)cc1Cl.Cl         -70.1
 2               CN(C)CCCOC(=O)c1ccccc1Cl.Cl        -0.792
 3  Cc1ccc(CNC(=O)C2CC(c3cc(C(F)(F)F)cc(C(F)(F)F)c3)=NO2)o1 (centres unmarked)         -12.1
 4   Cc1cccc(NC(=O)c2ccccc2NC(=O)C(C)(C)C)n1        -0.982
 5  CS(=O)(=O)N(CC(=O)NCCSCc1cccc(Cl)c1)c1ccccc1F         -20.2
 6  COC(=O)C1CCN(c2ccc([N+](=O)[O-])cc2[N+](=O)[O-])CC1         -0.88
 7  CC1(C)O[C@@H]2CC3C4C[C@H](F)C5=CC(=O)C=CC5(C)C4C(O)CC3(C)[C@]2(C(=O)CO)O1 (some centres unmarked)          1.68
 8  COc1ccc(C2C(C#N)=C(N)OC3=C2C(=O)CCC3)cc1Cn1nc(C)c([N+](=O)[O-])c1C (centres unmarked)         -13.3
 9  COc1ccc(-c2cc(C(F)(F)F)nc(SCC(=O)NCCCN3CCOCC3)n2)cc1           -14
10             COC(=O)C1CCN(Cc2ccc(C)cc2)CC1         -22.2
11  CCn1c(CCNC(=O)c2ccc(Cl)c(Cl)c2)nnc1SCCOc1ccc(OC)cc1         -8.77
12     Cc1noc(C)c1COc1cccc(C(=O)Nc2ccccc2)c1         -7.11
13  Cc1ccc(NC(=O)CCCNC(=O)c2ccc(Cl)cc2)cc1S(=O)(=O)N1CCOCC1         -17.9
14         Cc1cc(C)nc(Nc2nc(-c3ccccc3)cs2)n1          16.4
15  O=C(NCCNC(=O)c1ccc([N+](=O)[O-])cc1)c1ccncc1            12
16  CCn1c(CCNC(=O)c2ccc(OC)cc2)nnc1SCc1ccc(Cl)cc1Cl         -65.6
17  COc1cc(CCC(=O)N2CCN(c3cccc(C)c3C)CC2)cc(OC)c1OC         -2.88
18  Oc1ccc(N2CCN(Cc3ccc(OCCCN4CCCCC4)cc3)CC2)cc1          5.11
19  CCOc1ccc(N(CC(=O)N2CCN(Cc3ccccc3)CC2)S(C)(=O)=O)cc1         -12.2
20          O=C(O)c1nccnc1C(=O)Nc1ccc(Cl)cn1          17.6
21   COCCn1cc(C(=O)c2cc(Br)ccc2O)cc(C#N)c1=O          2.45
22  O=C(NCCS(=O)c1ccc(Cl)cc1)c1cccc(Cl)c1 (centres unmarked)         -12.2
23  CCn1c(SCc2ccc(Cl)c(Cl)c2)nnc1C(C)NC(=O)c1ccc(OC)cc1 (centres unmarked)            10
24  CCOc1ccc(NC(=O)CSc2nnc(CCNC(=O)c3ccc(OC)cc3)n2CC)cc1         -26.7
25  COc1cc(CCC(=O)N2CCN(c3ccc(N4CCOCC4)nn3)CC2)cc(OC)c1OC         -9.65
26  CCn1c(CCNC(=O)c2ccc(C)cc2)nnc1SCc1ccc(Cl)c(Cl)c1         -45.7
27  Cc1ccccc1NC(=O)COC(=O)c1cccc(S(=O)(=O)N2CCCCC2)c1         -6.55
28  CCn1c(CCNC(=O)c2ccc(OC)cc2)nnc1SCc1ccc(Cl)c(Cl)c1         -61.8
29  COc1ccc(C2C(C#N)=C(N)OC3=C2C(=O)CC(C)(C)C3)cc1Cn1cc([N+](=O)[O-])cn1 (centres unmarked)         -6.92
30  Cc1oc(-c2ccccc2F)nc1CS(=O)CC(=O)NCc1ccccn1 (centres unmarked)        -0.614
31  CCCc1ccc(Oc2c(-c3ccc(O)c(C)c3O)n[nH]c2C)cc1         -13.2
32  COc1cc(CCC(=O)N2CCN(c3ccc([N+](=O)[O-])cc3)CC2)cc(OC)c1OC         -78.4
33  O=C1N(c2cccc(Cl)c2)C(c2cccnc2)N2CCCN12 (centres unmarked)         -4.39
34  Cc1ccc(N(C(=O)Cn2nnc3ccccc32)C(C(=O)NCc2ccccc2)c2ccccn2)cc1 (centres unmarked)         -45.5
35  COC(=O)C1CCN(CCCOc2ccc(CN3CCN(c4ccc([N+](=O)[O-])cc4)CC3)cc2)CC1         -74.3
36  Cc1ccc(NC(=O)NC(=O)CSc2nnc(-c3ccc(Cl)cc3Cl)n2N)c(C)c1         -6.38
37  CC/C(=N\NC(=S)Nc1ccc(OC)cc1)c1ccc(OC(F)F)cc1         -4.32

Just for reference, paper PMC4336329 is where these values come from.
